system: MDA-N; experiment: NCI tumour cell line growth inhibition, 48 h
Activity calls are given as the source filed them. Cut-off read from the data, not from the text of the source: active = GI50 up to about 1.1 µM and inactive = higher.
A collection of compounds and their measured GI50

As a guide, the following entries are already answered.
{"Compound": "COC(=O)CNC(=O)CNC(=O)CSc1nnc(COc2ccc(Cl)cc2)n1-c1ccccc1", "GI50": "23.7 µM (inactive)"}
{"Compound": "O=C1CN(C(=O)C2CCCN2C(=O)C2CCCN2)C(=O)CN1 (centres undefined)", "GI50": "> 100 µM (inactive)"}

Need GI50, item `C=C1C[C@@H]2O[C@H]3[C@H]4[C@@H](C[C@@H](C)[C@@H](OC(C)=O)[C@H]42)[C@@H](C)CO[C@@]3(C)[C@H](OC(=O)CCCCCCC)CC1=O`
16.8 µM (inactive)

Need GI50, item C[N+](C)(C)CC(=O)N/N=C(\C(=O)NC1=C(Cl)C(=O)c2ccccc2C1=O)C(C#N)c1nc(-c2ccc([N+](=O)[O-])cc2)cs1 (centres undefined)
1.74 µM (inactive)

Need GI50, item `O=C(CCc1ccc(O)c(O)c1)c1ccc(O)c(O)c1O`
15.3 µM (inactive)

Need GI50, item `O=C(NC1(c2cc3ccccc3s2)CCCCC1)C1CCC1`
> 100 µM (inactive)

Need GI50, item O=C1OC(C2Cc3ccc4c(c3C2=O)CCCC4)c2ccccc21 (centres undefined)
34.8 µM (inactive)

Need GI50, item CCCCCCCCCCCCCCCC(=O)OCC(O)C1OC(=O)C(O)=C1O (centres undefined)
30.8 µM (inactive)

Need GI50, item `C=CCN(c1cc(OC)c2[nH]c(C(=O)OCC)c(C)c2c1[N+](=O)[O-])S(C)(=O)=O`
18.1 µM (inactive)
